experimental-details: binders of probe aFGF2 on microarray, primary screen, stem cell growth factor project, biochemical, small-molecule microarray, fluorescence 635/667 (AID 1067);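 further: measures binding of biotinylated aFGF2 protein to printed compounds on slides; z-score merges feature fluorescence and signal-to-noise across triplicate slides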
experimental-conditions: higher = more signal
Kindly state composite z-score for each of the entries shown.

Field request: composite z-score | item: `CN(C)CCCCCCNC(=O)[C@@H]1C[C@@H]2C(=O)N[C@@H](CCCC[N+](C)(C)C)C(=O)N2[C@@H]1c1cccc(OCCO)c1`
-0.0707

Further, for `COc1ccc([Si](C)(C)[C@H]2[C@H](CC(=O)N3CCC[C@H]3CO)O[C@@]3(C(=O)N(C)c4c(Br)cc(C)cc43)[C@@H]2C)cc1` ?
0.336

Input `COC(=O)[C@@]1(Cc2ccc(OC)cc2)[C@H]2c3cc(C(=O)N(C)C)n(Cc4c(CO)[nH]cc(C)c4=O)c3C[C@H]2CN1C(=O)c1ccccc1`
-0.015

And `CC[C@@H](O[Si](C#C[Si](C(C)C)(C(C)C)C(C)C)(C(C)C)C(C)C)c1cn([C@H](C)c2ccccc2)nn1` ?
-0.0797

Then this compound: `COc1ccc([Si](C)(C)[C@H]2[C@H](CC(=O)N(CCO)Cc3ccccc3)O[C@@]3(C(=O)N(Cc4ccc(N5C(=O)c6cccc7cccc5c67)cc4)c4ccccc43)[C@@H]2C)cc1`
-0.0249

Could you do the same for `C=CCNC(=O)[C@H]1[C@@H]2C(=O)O[C@@H](c3ccccc3)[C@@H](c3ccccc3)N2[C@@H](c2ccc(OCCO)cc2)[C@]12C(=O)Nc1ccc(C#Cc3ccc(OC)cc3)cc12` , please?
0.0566

Here is the next compound: `CC(C)(C)OC(=O)N1[C@@H](C=C(Br)Br)COC1(C)C`
0.0014

Moving on to `C=CCNC(=O)[C@H]1[C@@H]2C(=O)O[C@@H](c3ccccc3)[C@@H](c3ccccc3)N2[C@@H](c2ccc(O)cc2)[C@]12C(=O)N(C(=O)OCCOC)c1ccc(C#Cc3ccc(OC)cc3)cc12`
0.0106

# iterate: CN1C(=O)C2CC=C(C3=CCO[C@@H]3[C@H]3CCCN3S(=O)(=O)c3ccccc3[N+](=O)[O-])CC2C1=O (some centres undefined)
-0.166

Subsequent entry: `C=C(CCCC)C(=O)CC[C@@H](OC(C)=O)c1ccc(OCCO)cc1`
-0.0909

And the next one, `O=C1O[C@H](c2ccccc2)[C@H](c2ccccc2)N2[C@H]1[C@@H](C(=O)O)[C@]1(C(=O)Nc3ccc(C#CC4(O)CCCCCC4)cc31)[C@H]2c1ccccc1OCCO` ?
0.0322

What do we get for `C=CC[C@]1(C(N)=O)N=C(c2ccc(OCCCO)cc2)O[C@H]1c1ccccc1N=[N+]=[N-]` ?
0.087

Now consider CC1(C)OB(/C=C\CC(OC(=O)c2ccncc2)c2ccccc2)OC1(C)C (centres undefined) .
0.0262

How about this compound: `C=C(C(=O)CC[C@@H](OC(=O)c1ccccc1-c1ccccc1C(=O)O)c1ccc(OCCO)cc1)C(C)C`
0.0129
